Reference for the values: patent US20240041042A1

tested on: Digitaria sanguinalis (DIGSA); test: Pre-emergence herbicidal action against DIGSA; assay type: in vivo; conditions: 80 g/ha, visual scoring after about 3 weeks vs untreated controls
Answer each item with its documented Pre-emergence action against DIGSA in %.
Answers are plain numbers, in %.

CCOC(=O)COc1nn(-c2nc(F)ccc2F)c(-c2cncc(F)c2)c1Cl    90
COC(=O)[C@@H](C)Oc1nn(-c2ncccc2F)c(-c2cccnc2)c1Br    90
N#CCOC(=O)COc1nn(-c2ncccc2F)c(-c2ccc(F)nc2)c1Br    100

Now for a further compound.
Query string: Fill blank: measured Pre-emergence action against DIGSA in % of the compound "COC(=O)CNC(=O)COc1nn(-c2ccccn2)c(-c2ccc(F)nc2)c1Cl" is ____.
Result string: 100

====

tested on: Oryza sativa (ORYSA); type: in vivo; conditions: pre-emergence, 320 g/ha, crop plant compatibility, in comparison to untreated controls
OBSERVED_PROPERTY: Pre-emergence action against ORYSA in %

Take a look at these entries with their results.
C[C@H](NC(=O)COc1nn(-c2ccnc(F)c2)c(-c2ccc(F)nc2)c1Br)C(=O)O    0%
COC(=O)C1CCCN(C(=O)COc2nn(-c3ccccn3)c(-c3ccc(F)nc3)c2Br)C1 (centres unmarked)    10%
CCOC(=O)COc1nn(-c2ncccc2OC)c(-c2ccc(F)nc2)c1Br    0%
O=C(CSc1nn(-c2ccccn2)c(-c2cncc(F)c2)c1Br)NS(=O)(=O)c1ccccc1    20%
COc1cccnc1-n1nc(OCC(=O)O)c(Cl)c1-c1ccc(F)nc1    20%

Please state, for each entry, its recorded Pre-emergence action against ORYSA in %.
1. CCOC(=O)COc1nn(-c2ccncc2)c(-c2ccc(F)nc2)c1Br
2. O=C(O)COc1nn(-c2ccccn2)c(-c2cncc(F)c2)c1C1CC1
3. O=C(O)C1CCN(C(=O)COc2nn(-c3ccccn3)c(-c3cncc(F)c3)c2Br)C1 (racemic)
4. CCOC(=O)C1CCN(C(=O)COc2nn(-c3ccccn3)c(-c3ccc(F)nc3)c2Br)CC1
5. CCOC(=O)COc1nn(-c2ncccc2OC)c(-c2ccc(F)nc2)c1I
6. CCOC(=O)COc1nn(-c2ccc(Br)c(C)n2)c(-c2cncc(F)c2)c1Br

Result string:
1. 0%
2. 20%
3. 0%
4. 10%
5. 20%
6. 0%

Please state, for each entry, its recorded Pre-emergence action against ORYSA in %.
1. CSCCOC(=O)COc1nn(-c2ccccn2)c(-c2ccc(F)nc2)c1Br
2. CCOC(=O)COc1nn(-c2ncccc2F)c(-c2ccc(F)nc2)c1I

Result string:
1: 0%; 2: 0%

Query string: What Pre-emergence action against ORYSA in % appears in the records for this molecule with Oryza sativa (ORYSA)? "CCOC(=O)COc1nn(-c2ccnc(F)c2)c(-c2ccc(F)nc2)c1Br"
Result string: 0%

====

Test system: Zea mays (ZEAMX)
Type: in vivo
Settings: crop plant compatibility, 80 g/ha, effect vs untreated controls
Method: Seeds of monocotyledonous and dicotyledonous weeds and crop plants are placed in sandy loam in plastic or organic planting pots, covered with soil and cultivated in a greenhouse under controlled growth conditions. 2 to 3 weeks after sowing, the test plants are treated at the one-leaf stage. […]
OBSERVED_PROPERTY: Post-emergence action against ZEAMX in % (%)
Numbers only, in %.

Take a look at these entries with their results.
CC(Oc1nn(-c2ccccn2)c(-c2ccc(F)nc2)c1C(F)(F)F)C(=O)O (centres unmarked) [Example I-94]    20
CCOC(=O)COc1nn(-c2ccccn2)c(-c2ccc(Cl)nc2)c1Br [Example I-239]    0
O=C(O)COc1nn(-c2ncccc2F)c(-c2cncc(F)c2)c1Cl [Example I-169]    10
O=C(O)COc1nn(-c2ccnc(F)c2)c(-c2ccc(F)nc2)c1Br [III-02]    10
CC(C)OC(=O)COc1nn(-c2ncccc2F)c(-c2ccc(F)nc2)c1C1CC1 [Example I-328]    0

Please state, for each entry, its recorded Post-emergence action against ZEAMX in %.
1. CCCOC(=O)COc1nn(-c2ncccc2F)c(-c2ccc(F)nc2)c1C1CC1 [Example I-344]
2. COC(=O)[C@H](C)COC(=O)[C@@H](C)Oc1nn(-c2ccccn2)c(-c2ccc(F)nc2)c1Cl [Example I-275]
3. COC(=O)[C@@H](C)Oc1nn(-c2nc(F)ccc2F)c(-c2ccc(F)nc2)c1Cl [Example I-332]

Result string:
1: 0; 2: 20; 3: 10

====

tested on: Verconica persica (VERPE); test: Post-emergence herbicidal action against VERPE; type: in vivo; details: 320 g/ha, VERPE
Answer each item with its documented Post-emergence action against VERPE in %.
Answers are plain numbers, in %.

CC(NC(=O)[C@@H](C)Oc1nn(-c2ccccn2)c(-c2ccc(F)nc2)c1Cl)C(=O)O (some centres unmarked) [Example I-350]    90
CCOC(=O)COc1nn(-c2ccccn2)c(-c2ccc(Cl)nc2)c1Cl [Example I-241]    80
COC(=O)[C@H](C)COC(=O)[C@@H](C)Oc1nn(-c2ccccn2)c(-c2ccc(F)nc2)c1Cl [Example I-275]    90
COC(=O)[C@@H](C)Oc1nn(-c2nc(F)ccc2F)c(-c2ccc(F)nc2)c1Cl [Example I-332]    80
CCOC(=O)COc1nn(-c2ncccc2C)c(-c2cncc(F)c2)c1Br [Example I-211]    90

Please state, for each entry, its recorded Post-emergence action against VERPE in %.
1. COC(=O)CCOC(=O)COc1nn(-c2ccccn2)c(-c2ccc(F)nc2)c1Cl [Example I-88]
2. O=C(O)COc1nn(-c2nc(F)ccc2F)c(-c2ccc(F)nc2)c1Cl [Example I-337]
3. O=C(COc1nn(-c2ncccc2F)c(-c2ccc(F)nc2)c1C1CC1)ON=C1CCCC1 [Example I-380]

Result string:
80
80
90

====

Answer each item with its documented Post-emergence action against PHBPU in %.
test system: Pharbitis purpurea (PHBPU); experiment: Post-emergence herbicidal action against PHBPU; type: in vivo; settings: dosage 320 g/ha
Numbers only, in %.

COC(=O)CCOC(=O)COc1nn(-c2cccc(C)n2)c(-c2ccc(F)nc2)c1Br    80
C[C@@H](Oc1nn(-c2nc(F)ccc2F)c(-c2ccc(F)nc2)c1C1CC1)C(=O)O    90
COCCOC(=O)COc1nn(-c2ncccc2F)c(-c2ccc(F)nc2)c1C1CC1    90
O=C(O)COc1nn(-c2ncccc2F)c(-c2ccc(F)nc2)c1Br    80
COc1cccnc1-n1nc(OCC(=O)O)c(Cl)c1-c1ccc(F)nc1    80
O=C(O)COc1nn(-c2nc(F)ccc2F)c(-c2ccc(F)nc2)c1C1CC1    80
COC(=O)[C@H](C)COC(=O)[C@@H](C)Oc1nn(-c2ccccn2)c(-c2ccc(F)nc2)c1Cl    100
COC(=O)[C@@H](C)Oc1nn(-c2ncccc2F)c(-c2cccnc2)c1Br    100

Please state, for each entry, its recorded Post-emergence action against PHBPU in %.
1. CCOC(=O)[C@@H](C)Oc1nn(-c2nc(F)ccc2F)c(-c2ccc(F)nc2)c1Br
2. C[C@@H](Oc1nn(-c2ccccn2)c(-c2ccc(Cl)nc2)c1Cl)C(=O)O
3. CCOC(=O)COc1nn(-c2ccccn2)c(-c2ccc(Cl)nc2)c1Br
4. COC(=O)[C@@H](C)Oc1nn(-c2ccnc(Cl)c2)c(-c2ccc(F)nc2)c1Br
5. COC(=O)COc1nn(-c2ncccc2F)c(-c2ccc(F)nc2)c1Br
6. O=C(O)COc1nn(-c2ccccn2)c(-c2ccc(F)nc2)c1Cl
7. CCOC(=O)[C@@H](C)Oc1nn(-c2ccccn2)c(-c2cncc(F)c2)c1Cl

Result string:
1. 100
2. 80
3. 90
4. 80
5. 80
6. 90
7. 90

Please state, for each entry, its recorded Post-emergence action against PHBPU in %.
1. O=C(O)CSc1nn(-c2ccccn2)c(-c2cncc(F)c2)c1C1CC1
2. COC(=O)COc1nn(-c2ncccc2Cl)c(-c2ccc(F)nc2)c1Br

Result string:
1. 90
2. 80

====

test system: Triticum aestivum (TRZAS); assay type: in vivo; details: crop plant compatibility, 80 g/ha, effect vs untreated controls
OBSERVED_PROPERTY: Post-emergence action against TRZAS in % (%)
Give bare numbers, in %.

COC(=O)[C@@H](C)Oc1nn(-c2ncccc2F)c(-c2cccnc2)c1C#N    20
CCOC(=O)COc1nn(-c2ncccc2OC)c(-c2ccc(F)nc2)c1Br    20
O=C(CSc1nn(-c2ccccn2)c(-c2cncc(F)c2)c1Br)NC1CC1    0
COC(=O)C=CC(C)NC(=O)COc1nn(-c2ccccn2)c(-c2ccc(F)nc2)c1Br (centres unmarked) [Example I-345]    10

Please state, for each entry, its recorded Post-emergence action against TRZAS in %.
1. CCOC(=O)COc1nn(-c2ncccc2F)c(-c2ccnc(F)c2)c1I
2. O=C(O)C1CCCN1C(=O)COc1nn(-c2ccccn2)c(-c2ccc(F)nc2)c1Br (centres unmarked)
3. CCOC(=O)COc1nn(-c2ncccc2F)c(-c2ccc(F)nc2)c1F
4. COC(=O)C(C)COC(=O)COc1nn(-c2ncccc2C(F)(F)F)c(-c2ccc(F)nc2)c1C1CC1(F)F (centres unmarked)

Result string:
[20, 0, 0, 0]
